- System: Pseudomonas fluorescens (Ps.fl) - ATCC 948
- ASSAY: MIC test, broth two-fold serial dilution
- Type: cell-based
- ASSAY CONTEXT: ATCC948, complete inhibition of growth, read-out: MIC (ppm) for each compound

MOL	MIC
O=c1oc2ccccc2n1CC#CI	> 250 µg/mL
O=c1oc2ccccc2n1CC#CBr	> 250 µg/mL
O=c1oc2cc(Cl)ccc2n1CC#CBr	> 250 µg/mL
O=c1oc2cc(Cl)ccc2n1CC#CI	16 µg/mL

* * *

Record: MIC reported on Rhorotorularubra (R. rubra) - ATCC 2503.
MEASUREMENT LABEL: MIC

MOL	VALUE REPORTED
O=c1oc2cc(Cl)ccc2n1CC#CBr	> 25 µg/mL
O=c1oc2ccccc2n1CC#CBr	> 25 µg/mL
O=c1oc2cc(Cl)ccc2n1CC#CI	≤ 1 µg/mL
O=c1oc2ccccc2n1CC#CI	≤ 1 µg/mL
